- Tested on: Human Skeletal Cells (SKM)
- EXPERIMENTAL DETAILS: Protective effect on cell death induced by maitotoxin on human skeletal cells (SKM), WST-1 readout
- Format: cell-based
- EXPERIMENTAL PARAMETERS: Homo sapiens, 24 h, read-out: EC50 μM After incubation for 24 h with the toxin, single substance (proportion 1); cell mortality rate induced by the toxin 84%; maitotoxin 24 h
ENDPOINT LABEL: EC50 (µM)
Give the quantity in µM, number only.

Lookup: Quick one: EC50 of CC(C)C[C@H](NC(=N)c1ccc2c(c1)Nc1ccccc1S2)C(=O)N[C@H]1CCOC1O (stereo partly shown) [Example 5, hydroiodide] ?
Found: 6.26
